- test: Cytotoxicity against human PBMC assessed as inhibition of cell proliferation after 5 days by MTT assay
- Assay type: cell-based
observed property: CC50 at 120 h

Given the molecule Nc1ncnc2c1ncn2[C@@H]1O[C@H](CO)C(O)C1(F)Cl (single isomer, unassigned) , what is its reported CC50 at 120 h?
> 100 µM

Item under review: `O=c1ccn([C@@H]2O[C@H](CO)[C@@H](O)[C@]2(F)Cl)c(=O)[nH]1` . Reported CC50 at 120 h?
> 100 µM

Entry CC(C)OC(=O)[C@H](C)NP(=O)(OC[C@H]1O[C@@H](n2cnc3c(=O)[nH]c(N)nc32)[C@@](F)(Cl)[C@@H]1O)Oc1ccccc1 (stereo partly drawn) has what CC50 at 120 h?
> 100 µM
